Hey, just so you know, these numbers are from ChEMBL document CHEMBL1773026.

test name: Bronchodilatory activity against electrically-stimulated contraction in guinea pig trachea assessed as concentration required for 50% bronchorelaxation activity
Type: functional, tissue-based, Cavia porcellus
Parameter: EC50. Scope: all listed entries.
parameter measured: EC50 (nM)

mol=CC(C)N(CC[C@H](c1ccccc1)c1cc(CCCCOc2ccc(CCNC[C@H](O)c3ccc(O)c4[nH]c(=O)ccc34)cc2)ccc1O)C(C)C readout_value=4.1
mol=CC(C)N(CC[C@H](c1ccccc1)c1cc(CCCNC(=O)Cc2cccc(CC(C)(C)NC[C@H](O)c3ccc(O)c(NS(C)(=O)=O)c3)c2)ccc1O)C(C)C readout_value=1.3

----------
subject of test: UniProt:P07550
Sequence (P07550 whole entry, looked up): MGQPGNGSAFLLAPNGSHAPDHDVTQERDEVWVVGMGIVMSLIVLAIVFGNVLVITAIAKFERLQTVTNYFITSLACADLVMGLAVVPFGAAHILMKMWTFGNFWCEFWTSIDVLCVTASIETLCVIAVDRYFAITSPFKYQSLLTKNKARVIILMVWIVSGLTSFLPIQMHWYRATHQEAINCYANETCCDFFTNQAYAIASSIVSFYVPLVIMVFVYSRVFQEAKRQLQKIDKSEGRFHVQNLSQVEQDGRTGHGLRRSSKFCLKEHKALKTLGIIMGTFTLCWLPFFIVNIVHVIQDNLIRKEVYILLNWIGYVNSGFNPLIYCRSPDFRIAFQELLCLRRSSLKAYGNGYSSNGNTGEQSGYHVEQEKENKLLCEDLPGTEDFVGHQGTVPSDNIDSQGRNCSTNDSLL
test name: Ratio of EC50 for human beta2 adrenergic receptor by unwashed assay to EC50 for human beta2 adrenergic receptor expressed in CHO cells by wash-off assay
Type: cell-based
Parameter: Ratio EC50. Scope: all listed entries.
parameter measured: Ratio EC50

mol=CC(C)N(CC[C@H](c1ccccc1)c1cc(CCCCOc2ccc(CCNC[C@H](O)c3ccc(O)c4[nH]c(=O)ccc34)cc2)ccc1O)C(C)C parameter_measured="Ratio EC50" readout_value=1.1
mol=C[C@H](Cc1cccc(CC(=O)NCc2ccc(Cl)c(Cl)c2)c1)NC[C@H](O)c1ccc(O)c(CO)c1 parameter_measured="Ratio EC50" readout_value=2.9
mol=CC(C)N(CC[C@H](c1ccccc1)c1cc(CCCNC(=O)Cc2cccc(C[C@@H](C)NC[C@H](O)c3cc(O)cc(O)c3)c2)ccc1O)C(C)C parameter_measured="Ratio EC50" readout_value=0.7

----------
test name: Clearance in rat at 2 mg/kg, iv
Format: ADME, organism-based
Parameters: dose 2 mg/kg, route intravenous
condition notes: in vivo
parameter measured: clearance (mL/min/kg)

mol=CC(C)N(CC[C@H](c1ccccc1)c1cc(CCCCOc2ccc(CCNC[C@H](O)c3ccc(O)c4[nH]c(=O)ccc34)cc2)ccc1O)C(C)C readout_value=12.6

----------
Parameter: TIME. Scope: all listed entries.
subject of test: Muscarinic acetylcholine receptor M3 (Homo sapiens, UniProt P20309)
Sequence (P20309 whole entry, looked up): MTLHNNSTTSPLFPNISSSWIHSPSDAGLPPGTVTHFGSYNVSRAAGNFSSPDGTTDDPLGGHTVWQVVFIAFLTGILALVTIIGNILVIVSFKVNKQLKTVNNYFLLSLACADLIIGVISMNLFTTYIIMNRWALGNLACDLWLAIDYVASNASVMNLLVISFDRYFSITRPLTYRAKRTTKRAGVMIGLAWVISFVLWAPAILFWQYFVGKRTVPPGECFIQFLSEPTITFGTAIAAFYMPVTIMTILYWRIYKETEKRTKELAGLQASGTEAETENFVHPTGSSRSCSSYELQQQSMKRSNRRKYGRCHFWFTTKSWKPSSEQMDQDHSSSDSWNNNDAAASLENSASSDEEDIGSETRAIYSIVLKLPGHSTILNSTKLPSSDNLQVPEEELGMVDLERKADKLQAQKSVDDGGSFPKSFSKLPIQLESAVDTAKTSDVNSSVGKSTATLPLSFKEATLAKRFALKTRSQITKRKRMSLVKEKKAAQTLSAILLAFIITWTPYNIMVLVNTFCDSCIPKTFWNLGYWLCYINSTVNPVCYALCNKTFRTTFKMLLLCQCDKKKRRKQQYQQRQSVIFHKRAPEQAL
test name: Displacement of [3H]NMS from human muscarinic M3 receptor expressed in CHO cells assessed as time required to reach 50% of total [3H]NMS binding by dilution-offset methodology
Assay type: cell-based
parameter measured: TIME

mol=CC(C)N(CC[C@H](c1ccccc1)c1cc(CCCCOc2ccc(CCNC[C@H](O)c3ccc(O)c(NS(C)(=O)=O)c3)cc2)ccc1O)C(C)C parameter_measured=TIME readout_value="> 20 h"
mol=Cc1ccc(O)c([C@H](CCN(C(C)C)C(C)C)c2ccccc2)c1 parameter_measured=TIME readout_value="< 0.25 h"
mol=CC(C)N(CC[C@H](c1ccccc1)c1cc(CCCNC(=O)Cc2cccc(C[C@@H](C)NC[C@H](O)c3cc(O)cc(O)c3)c2)ccc1O)C(C)C parameter_measured=TIME readout_value="2.25 h"
mol=CC(C)N(CC[C@H](c1ccccc1)c1cc(CCCCOc2ccc(CCNC[C@H](O)c3ccc(O)c4[nH]c(=O)ccc34)cc2)ccc1O)C(C)C parameter_measured=TIME readout_value="> 20 h"
mol=CC(C)N(CC[C@H](c1ccccc1)c1cc(CCCCOc2ccc(CCNC[C@H](O)c3ccc(O)c(CO)c3)cc2)ccc1O)C(C)C parameter_measured=TIME readout_value="> 20 h"
mol=CC(C)N(CC[C@H](c1ccccc1)c1cc(CCNC[C@H](O)c2ccc(O)c(NS(C)(=O)=O)c2)ccc1O)C(C)C parameter_measured=TIME readout_value="< 0.25 h"
mol=CC(C)N(CC[C@H](c1ccccc1)c1cc(CCCCOCCCCCCNC[C@H](O)c2ccc(O)c(NS(C)(=O)=O)c2)ccc1O)C(C)C parameter_measured=TIME readout_value="> 20 h"
mol=CC(C)N(CC[C@H](c1ccccc1)c1cc(CCCNC(=O)Cc2cccc(CC(C)(C)NC[C@H](O)c3ccc(O)c(NS(C)(=O)=O)c3)c2)ccc1O)C(C)C parameter_measured=TIME readout_value="2.77 h"
mol=CC(C)N(CC[C@H](c1ccccc1)c1cc(CCCNC(=O)Cc2cccc(CC(C)(C)NC[C@H](O)c3ccc(O)c(CO)c3)c2)ccc1O)C(C)C parameter_measured=TIME readout_value="5.92 h"
